assay system: CD47 on the red cell surface (Homo sapiens (Human), UniProt Q08722 19-323)
protocol description: flow cytometry on fixed red cells, antibody 1 µg/mL
Each item that follows carries a reported MFI.
quantity kind: MFI (MFI)

binder: Xi2H8 (antibody, human IgG4 S228P, kappa, V domains shown, mouse variable regions on human IgG4 (EU S228P) and human kappa constant regions; also called chimeric 2H8 antibody) VH: QVQLKESGPGLVAPSQSLSITCTVSGFSLTNYGVHWVRQPPGKGLEWLGIIWAGGSTNYNSALMSRLSISKDNSKSQVFLKMNSLQTDDTAMYYCARDDYASMDYWGQGTSVTVSS VL: DAFMTQTPLSLPVSLGDQASISCRSSQSLVHSNGNTYLHWYLQKPGQSPKLLIYKVSNRFSGVPDRFSGSGSGTDFTLKISRVEAEDLGVYFCSQSTHVPYTLGGGTKLEIKR
quantity kind: MFI
data value: 952

binder: Xi3F10 (antibody, human IgG4 S228P, kappa, V domains shown, mouse variable regions on human IgG4 (EU S228P) and human kappa constant regions; also called chimeric 3F10 antibody) VH: EVQLQQSVAELMKPGASVKIYCKATGYTFSRYWIEWVKQRPGHGLEWIGEFIPGSDTTNFNEKFKGKATFTAEISSNTAYMQLSSLTSEDSAVYFCARGGLRRMDYWGQGTSVTVSS VL: DIVMTQTPAIMSASPGEKVTMTCRASSSVSSTYLHWYQQKSGASPKLWIYTTSTLASGVPARFSGSGSGTSYSLTISSVEAEDAATYYCQQFSDSTWTFGGGTKLEIKR
quantity kind: MFI
data value: 36100

binder: Xi14A9 (antibody, human IgG4 S228P, kappa, V domains shown, mouse variable regions on human IgG4 (EU S228P) and human kappa constant regions; also called chimeric 14A9 antibody) VH: EVQLQQSGAEVARPGASVKLSCTVSGFNIEDDYIEWVKQRPEQGLEWIGRIDPANDKTKYAPKFQDKATITGDTSSNTAYLQLSSLTSEDTAVYYCTRPGLRRYYSMDYWGQGTSVTVSS VL: NIVLTQSPKSMSMSVGERVTLSCKASENVVSYVSWYQQKPEQSPKLLIYGASNRYTGVPDRFIGSGSSTDFTLIISSFQPEDLADYHCGQSYSYPLTFGAGTKLELKR
quantity kind: MFI
data value: 26500

binder: Xi16E5 (antibody, human IgG4 S228P, kappa, V domains shown, mouse variable regions on human IgG4 (EU S228P) and human kappa constant regions; also called chimeric 16E5 antibody) VH: EVQLQQSGPELKKPGETVKISCKASGYTFTNYGMNWVKQVPGKGLKWMGWINTNTGEPTYAEEFKGRFAFSLETSARTAFLQINNLKNEDTATYFCTRFSHLRGPMDYWGQGASVTVSS VL: DAVMTQTPLSLPVSLGDQASISCRSSQSLVHSNGYTYLHWYLQKPGQSPKLLIYKVSNRFSGVPDRFSGSGSGTDFTLKISRLEAEDLGVYFCSQSTHVPPTFGGGTKLEIKR
quantity kind: MFI
data value: 1310

The measurements presented in this section are drawn from patent US20240294635A1.
